Test: 1- to 5-day PK with topical ocular Compound-I formulations (Example 5)
Type: in vivo, Dutch Belted rabbits
Conditions: Dutch Belted, rabbit, aqueous humor, topical, 30 μL bilateral, Groups 1, 5: one dose day 1; 1 hr post-dose; read-out: Average Concentration Aqueous Humor
QUANTITY NAME: concentration at 1 h

Endpoint output: concentration at 1 h of Cl.NC(=O)c1c(OCc2c(F)cc(Br)cc2F)nsc1NC(=O)NCCCCN1CCCC1 [Compound-I, hydrochloride] . Value?
1.08 nM

====

Test: 1- to 5-day PK with topical ocular Compound-I formulations (Example 5)
Type: in vivo, Dutch Belted rabbits
Conditions: Dutch Belted, rabbit, central retina, topical, 30 μL per eye (bilateral), q.d. groups (2,6), 4 days; 8 hr after day 5 morning dose; read-out: Average Concentration Central Retina
QUANTITY NAME: concentration at 8 h
// return the numeric value with its unit appended

Endpoint output: concentration at 8 h of Cl.NC(=O)c1c(OCc2c(F)cc(Br)cc2F)nsc1NC(=O)NCCCCN1CCCC1 [Compound-I, hydrochloride] . Value?
38 nM

====

Assay: 1- to 5-day PK with topical ocular Compound-I formulations (Example 5)
Assay type: in vivo, Dutch Belted rabbits
Settings: Dutch Belted, rabbit, aqueous humor, topical, 30 μL (bilateral), Groups 1, 5: one dose day 1; 8 hr post-dose; read-out: Average Concentration Aqueous Humor
QUANTITY NAME: concentration at 8 h (nM)
Provide the reading as a plain figure in nM.

Endpoint output: concentration at 8 h of Cl.NC(=O)c1c(OCc2c(F)cc(Br)cc2F)nsc1NC(=O)NCCCCN1CCCC1 [Compound-I, hydrochloride] . Value?
6.67

====

Assay: 1- to 5-day PK with topical ocular Compound-I formulations (Example 5)
Assay type: in vivo, Dutch Belted rabbits
Conditions: Dutch Belted, rabbit, central choroid, topical, 30 μL (bilateral), q.d. groups (2,4,6,8,10,11,13,15,17), 4 days; 1 hr after day 5 morning dose; read-out: Average Concentration Central Choroid
QUANTITY NAME: concentration at 1 h

Endpoint output: concentration at 1 h of Cl.NC(=O)c1c(OCc2c(F)cc(Br)cc2F)nsc1NC(=O)NCCCCN1CCCC1 [Compound-I, hydrochloride] . Value?
196 nM

====

Assay: 1- to 5-day PK with topical ocular Compound-I formulations (Example 5)
Format: in vivo, Dutch Belted rabbits
Details: Dutch Belted, rabbit, central retina, topical, 30 μL (bilateral), q.d. groups (2,4,6,8,10,11,13,15,17), 4 days; 1 hr after day 5 morning dose; read-out: Average Concentration Central Retina
QUANTITY NAME: concentration at 1 h (nM)
Provide the reading as a plain figure in nM.

Endpoint output: concentration at 1 h of Cl.NC(=O)c1c(OCc2c(F)cc(Br)cc2F)nsc1NC(=O)NCCCCN1CCCC1 [Compound-I, hydrochloride] . Value?
36.3

====

Assay: Concentrations of Compound-I in ocular fluids and tissues, 0.4% cyclodextrin solutions, 24-day study
Type: in vivo, Dutch-Belted rabbits
Details: Dutch-Belted, rabbit, aqueous humor, topical, 0.4 % (4 mg/mL); 0.4% cyclodextrin-based solutions, twice daily, day 24, 1 hour after first daily dose; read-out: Aqueous humor concentration, range over solutions
QUANTITY NAME: concentration at 1 h

Endpoint output: concentration at 1 h of Cl.NC(=O)c1c(OCc2c(F)cc(Br)cc2F)nsc1NC(=O)NCCCCN1CCCC1 [Compound-I, hydrochloride] . Value?
2 to 7 nM
